Test system: TDF
ASSAY OVERVIEW: cell number relative to DMSO (% of DMSO); higher = more cells (less growth inhibition / toxicity)
CONDITION PARAMETERS: concentration: 10 µM; 24 h
Each item that follows carries a reported cell number.
No unit in the answer, only the number.

1) Cc1oc(-c2ccccc2)nc1CCC(=O)c1ccc(CC2SC(=O)[N-]C2=O)cc1.[Na+] (centres undefined)	106

**Query** Quote cell number with test system TDF for O=C(C=Cc1ccc(O)c(O)c1)c1ccc(O)cc1O
**Result** 89.2

**Query** Please report the measured cell number for O=C1c2ccccc2-[n+]2ccc3c([nH]c4ccccc43)c21.[Cl-] [Fascaplysin, Synthetic] tested on TDF.
**Result** 6.76

**Query** // output cell number; input C[n+]1cc2c3c(ccc2c2ccc4cc5c(cc4c21)OCO5)OCO3.[Cl-] [Sanguinarine chloride] ; system TDF
**Result** 0.53

----------
Reported cell number values follow for various compounds
Test system: TDF
ASSAY OVERVIEW: cell number relative to DMSO (% of DMSO); higher = more cells (less growth inhibition / toxicity)
CONDITION PARAMETERS: concentration: 10 µM; 24 h
Field format: numeric only.

As a guide, the following entries are already answered.
1. O=C(NCCCN1CCOCC1)c1cnn2c(-c3ccccc3)cc(-c3ccccc3)nc12	84.3
2. CC(C)NCC(O)c1ccc(NS(C)(=O)=O)cc1.Cl (racemic)	100
3. C[N+](C)(C)CCO.[Cl-] [2-hydroxy-N,N,N-trimethylethanaminium chloride]	107

**Query** Send back TDF cell number of Cc1ccc(C)c(OCCCC(C)(C)C(=O)O)c1 only.
**Result** 99.1

**Query** Find cell number for CC(=O)NC(C(=O)O)C(C)(C)SN=O (centres undefined) on TDF and write it down.
**Result** 109

**Query** With TDF as the test system, provide measured cell number for this compound: O=C1NC(=O)c2c1c1c3ccccc3[nH]c1n1cncc21 [Isogranulatimide]
**Result** 96.4

**Query** Give measured cell number for C=C1C(=CC=C2CCCC3(C)C2CCC3C(C)CCCC(C)(C)O)CC(O)CC1O (centres undefined) [Calcitriol] (TDF).
**Result** 100

**Query** Find the measured cell number of Cc1ccc(-c2cc(C(F)(F)F)nn2-c2ccc(S(N)(=O)=O)cc2)cc1 with TDF as test system.
**Result** 103

**Query** Fetch value of cell number on TDF for CC(C)Cc1ccc(CC(=O)O)cc1 .
**Result** 110

----------
Test system: TDF
ASSAY OVERVIEW: H1.0 immunofluorescence intensity relative to DMSO (% of DMSO); higher = stronger H1.0 induction, active = 120 or more
CONDITION PARAMETERS: concentration: 10 µM; 24 h
Use 100 as the dividing line for H1.0 immunofluorescence intensity, with the line itself on the MET side and lower values as NOT MET.

Check out these entries, answers already filled in.
1) Cn1nnc2c(C(N)=O)ncn2c1=O [Temozolomide]	MET
2) COCCc1ccc(OCC(O)CNC(C)C)cc1.COCCc1ccc(OCC(O)CNC(C)C)cc1.O=C(O)C(O)C(O)C(=O)O (racemic)	NOT MET
3) O=c1c(O)c(-c2cc(O)c(O)c(O)c2)oc2cc(O)cc(O)c12	NOT MET

Next item in the queue.
**Query** Hi, just wondering whether Br.Br.N=C(N)SCCc1ccc(CCSC(=N)N)cc1 [1,4-PBIT dihydrobromide] shows H1.0 immunofluorescence intensity of 100 or higher.
**Result** NOT MET
